Target: SHP2-C SH2
Assay: SH2 binding enrichment of the phosphorylated peptide, bacterial display (enrichment ratio); higher = better substrate or ligand; peptides without Tyr show the background
Result Type: SH2 binding enrichment

Study these solved cases before continuing.
{"Residue String": "VGTTAYMAPEA [IRAK4_Y354]", "Value Measured": 0.692}
{"Residue String": "RKQQLYTAMEE [CCDC39_Y593]", "Value Measured": 0.576}
{"Residue String": "KTGDFYDLFGG [PTPN11_Y63_N58K_YF]", "Value Measured": 0.781}
{"Residue String": "MARDISRASYY [ALK_Y1278_Y1278S]", "Value Measured": 0.519}
{"Residue String": "PVDNLYAEPAV [PRPS1_Y146]", "Value Measured": 0.63}

P: AHAGEYGEEAL [HBA1_Y25_A27E]
Q: CTTIHYNFMCS [TP53_Y234_N239S_YF]
Asked: Param metric = SH2 binding enrichment; output whichever of P , Q has the minimum value. # reply format: chosen label
Given back: P
(P: 0.599, Q: 1.96)

====

Target: Fyn (UniProt P06241)
Sequence (P06241 whole entry, looked up): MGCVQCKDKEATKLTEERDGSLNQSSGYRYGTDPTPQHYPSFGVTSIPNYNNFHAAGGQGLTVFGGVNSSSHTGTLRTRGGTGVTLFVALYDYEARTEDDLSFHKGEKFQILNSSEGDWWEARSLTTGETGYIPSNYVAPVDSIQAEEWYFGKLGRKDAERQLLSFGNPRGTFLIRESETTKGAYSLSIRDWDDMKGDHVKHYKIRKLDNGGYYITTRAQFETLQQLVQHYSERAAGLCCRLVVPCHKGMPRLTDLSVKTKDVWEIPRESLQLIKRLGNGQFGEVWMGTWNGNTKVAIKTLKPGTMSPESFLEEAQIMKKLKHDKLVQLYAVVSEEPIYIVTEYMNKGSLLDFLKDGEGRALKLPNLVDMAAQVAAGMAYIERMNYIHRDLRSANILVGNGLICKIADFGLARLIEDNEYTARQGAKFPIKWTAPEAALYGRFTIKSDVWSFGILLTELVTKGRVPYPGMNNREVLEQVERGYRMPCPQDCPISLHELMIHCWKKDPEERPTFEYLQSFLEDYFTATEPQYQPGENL
Assay: phosphorylation enrichment, bacterial display (enrichment ratio); higher = better substrate or ligand; peptides without Tyr show the background
Below, each entry is listed alongside its reported phosphorylation enrichment.
I only need the number, thanks.

{"Residue String": "LIDGYYRLTAD [JAK2_Y373]", "phosphorylation enrichment": 1.71}
{"Residue String": "PSSNLYYRCLT [CNGA3_Y168_W171C]", "phosphorylation enrichment": 0.883}
{"Residue String": "NVDGKYSFLKV [GRM3_Y478_G475D_YF]", "phosphorylation enrichment": 0.383}
{"Residue String": "QAEEWYFGKMG [YES1_Y159]", "phosphorylation enrichment": 0.773}
{"Residue String": "HEPKGYNANFC [TGFB2_Y341]", "phosphorylation enrichment": 0.558}

Asked: Can you look up the measured phosphorylation enrichment of ALETLYKKAVK [CC2D2A_Y381_E376A] for me?
Given back: 0.342

Asked: Now consider NTSKMYIPHTD [EXPH5_Y782_D777N] and answer again.
Given back: 0.45

Asked: Here is the next sequence: EHTILYSNNST [KANSL1_Y223_T221I]
Given back: 0.437

Asked: Now the sequence SKEPYYVRCIK [MYO1D_Y586]
Given back: 0.417

Asked: Cool, now KLQKYYRQNPD [EHHADH_Y683]
Given back: 0.348

====

Target: Grb2 SH2 (UniProt P62993)
Assay: SH2 binding enrichment of the phosphorylated peptide, bacterial display (enrichment ratio); higher = better substrate or ligand; peptides without Tyr show the background
Result Type: SH2 binding enrichment

{"Residue String": "ARKWGYTVKGI [OAT_Y158]", "Measured On": "Grb2 SH2 (UniProt P62993)", "Result Type": "SH2 binding enrichment", "Value Measured": 0.779}
{"Residue String": "ISGGGYRACPA [FGB_Y71_R74C]", "Measured On": "Grb2 SH2 (UniProt P62993)", "Result Type": "SH2 binding enrichment", "Value Measured": 0.958}
{"Residue String": "TSPALYRLDLD [TRIL_Y352_A347T]", "Measured On": "Grb2 SH2 (UniProt P62993)", "Result Type": "SH2 binding enrichment", "Value Measured": 0.685}

I: DPTNTYARPAE [SGMS2_Y24]
II: SPDMLYQYLKQ [RPAP3_Y567]
Asked: Compare SH2 binding enrichment: is it lower for I or for II ? Selection: enter the item's label.
Given back: I

1: KRISCYEARFQ [PFKFB3_Y194_S197R_YF]
2: RRETPYGGGGG [FUS_Y526_R524T]
Asked: Form field 'greater SH2 binding enrichment' accepts 1 or 2 ; which applies? # reply format: chosen label
Given back: 1
(1: 0.999, 2: 0.685)
